measured.metric: melting point

-- ask I'd like to know its melting point. The compound in question is Cc1cn2cc(-c3cc4ccc(N5CCC6(CCNC6)C5)cc4oc3=O)nc2c(C)n1 (centres unmarked)
-- reply 190 to 200 °C

-- ask I'd like to know its melting point. The compound in question is `CN1CCN(c2cc(F)c3cc(-c4nc5ccccc5[nH]4)c(=O)oc3c2)CC1`
-- reply 281 to 284 °C

-- ask I'd like to know its melting point. The compound in question is `Cc1cc(F)c2nc(-c3cc4ccc(N5CCN6CCC[C@@H]6C5)cc4oc3=O)cn2c1`
-- reply 296 to 306 °C

-- ask I'd like to know its melting point. The compound in question is `Cc1cccn2cc(-c3cc4ccc(N5CCCN(C)CC5)cc4oc3=O)nc12`
-- reply 138 to 140 °C

-- ask I'd like to know its melting point. The compound in question is `Cc1cccc(Nc2cc3ccc(N4CCNCC4)cc3oc2=O)n1`
-- reply 135 to 137 °C

-- ask I'd like to know its melting point. The compound in question is `CCN1CCN(c2ccc3cc(-c4cccc(OC)n4)c(=O)oc3c2)CC1`
-- reply 145 to 147 °C

-- ask I'd like to know its melting point. The compound in question is `COc1cc(OC)cc(-c2cc3ccc(N4CCN[C@@H](C)C4)cc3oc2=O)c1`
-- reply 149 to 151 °C

-- ask I'd like to know its melting point. The compound in question is `Cc1cn2cc(-c3cc4ccc(C5CCNCC5)cc4oc3=O)nc2c(C)n1`
-- reply 224 to 229 °C
